- SYSTEM_NAME: FSHR (Homo sapiens)
- Construct: expressed in transfected cells; host or cells: CHO (Cho-FSHR-LUC-1-1-43)
- Sequence (P23945 18-695): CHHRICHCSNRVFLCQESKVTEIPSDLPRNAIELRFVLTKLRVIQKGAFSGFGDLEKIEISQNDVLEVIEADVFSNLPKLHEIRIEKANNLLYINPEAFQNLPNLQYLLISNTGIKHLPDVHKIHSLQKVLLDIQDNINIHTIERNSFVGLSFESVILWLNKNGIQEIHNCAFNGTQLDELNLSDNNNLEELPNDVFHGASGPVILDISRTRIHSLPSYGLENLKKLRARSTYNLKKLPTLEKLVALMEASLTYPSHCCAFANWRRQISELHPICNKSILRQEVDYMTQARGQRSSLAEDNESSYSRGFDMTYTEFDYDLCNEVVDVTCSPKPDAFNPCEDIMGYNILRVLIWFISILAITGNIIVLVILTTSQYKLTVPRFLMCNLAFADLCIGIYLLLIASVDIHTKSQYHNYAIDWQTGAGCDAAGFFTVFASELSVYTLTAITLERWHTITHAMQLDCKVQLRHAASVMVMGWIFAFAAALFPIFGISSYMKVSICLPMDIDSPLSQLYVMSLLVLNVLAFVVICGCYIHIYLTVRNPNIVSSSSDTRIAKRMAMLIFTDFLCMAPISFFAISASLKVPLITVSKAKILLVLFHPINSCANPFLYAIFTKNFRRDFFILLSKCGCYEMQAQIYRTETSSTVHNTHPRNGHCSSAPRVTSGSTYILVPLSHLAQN
- Sequence (P01215 25-116 partner): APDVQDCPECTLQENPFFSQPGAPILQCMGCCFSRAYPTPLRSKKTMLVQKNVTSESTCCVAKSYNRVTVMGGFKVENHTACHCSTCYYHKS
- Sequence (P01225 19-129 partner): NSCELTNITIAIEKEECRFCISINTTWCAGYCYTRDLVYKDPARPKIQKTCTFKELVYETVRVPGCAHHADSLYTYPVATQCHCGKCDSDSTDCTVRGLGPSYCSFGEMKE
- PROTOCOL_NOTES: EC50 of cyclic AMP production in CHO FSHR cells + EC20 FSH (Assay A)
- Format: cell-based
- ASSAY_CONDITIONS: CHO FSHR cells + EC20 FSH; Table 2; read-out: Assay A EC50 of cyclic AMP production
OBSERVATION_TYPE: EC50

Can you look up the measured EC50 of `Cc1ccccc1N1CCN(c2ccc(C(=O)NCCCn3cccn3)cc2NC(=O)c2coc(C3CC3)n2)CC1` for me?
0.1 to 1 µM

Field entry: `Cc1ccccc1N1CCN(c2ccc(C(=O)NCCC#N)cc2NC(=O)c2coc(C3CC3)n2)CC1`
0.1 to 1 µM

Field entry: `CCN(CC)Cc1cccc(CNC(=O)c2ccc(N3CCN(c4ccccc4C)CC3)c(NC(=O)c3ccco3)c2)c1`
0.1 to 1 µM

Field entry: `Cc1ccccc1N1CCN(c2ccc(C(=O)NCCCN3C(=O)CCC3=O)cc2NC(=O)c2ccc(Br)o2)CC1`
0.1 to 1 µM

Field entry: `COc1cccc(N2CCN(c3ccc(C(=O)NCCCN4CCCC4=O)cc3NC(=O)c3coc(C4CC4)n3)CC2)n1`
0.1 to 1 µM

Field entry: `Cc1ccccc1N1CCN(c2ccc(C(=O)NCCCN3CCCC3=O)cc2NCc2ccco2)CC1`
< 0.1 µM

Field entry: `Cc1ccccc1N1CCN(c2ccc(C(=O)NCCCNC(=O)c3ccncc3)cc2NC(=O)c2coc(C3CC3)n2)CC1`
0.1 to 1 µM

Field entry: `Cc1ccccc1N1CCN(c2ccc(C(=O)NCCCN3C(=O)OCC3(C)C)cc2NC(=O)c2coc(C3CC3)n2)CC1`
0.1 to 1 µM

Field entry: `Cc1ccccc1N1CCN(c2ccc(C(=O)NCc3cccc(CN(C)C)n3)cc2NC(=O)c2coc(C3CC3)n2)CC1`
0.1 to 1 µM

Field entry: `Cc1ccccc1N1CCN(c2ccc(C(=O)NCCCN3CCNC3=O)cc2NC(=O)c2ccco2)CC1`
< 0.1 µM

Field entry: `CCNC(=O)N(C)CCCNC(=O)c1ccc(N2CCN(c3ccccc3C)CC2)c(NC(=O)c2coc(C3CC3)n2)c1`
0.1 to 1 µM

Field entry: `Cc1ccccc1N1CCN(c2ccc(C(=O)NCCCc3scnc3C)cc2NC(=O)c2coc(C3CC3)n2)CC1`
0.1 to 1 µM

Field entry: `CCNC(=O)NCCCNC(=O)c1ccc(N2CCN(c3ccccc3C)CC2)c(NC(=O)c2ccco2)c1`
0.1 to 1 µM

Field entry: `Cc1ccccc1C1(O)CCN(c2ccc(C(=O)NCCCN3CCCC3=O)cc2NC(=O)c2coc(C3CC3)n2)CC1`
1 to 10 µM

Field entry: `O=C(NCCCN1CCCC1=O)c1ccc(N2CCN(c3ccccc3C3CC3)CC2)c(NC(=O)c2coc(C3CC3)n2)c1`
0.1 to 1 µM

Field entry: `N#Cc1nccnc1N1CCN(c2ccc(C(=O)NCCCN3CCCC3=O)cc2NC(=O)c2coc(C3CC3)n2)CC1`
1 to 10 µM

Field entry: `CC(=O)NCCOCCOCCNC(=O)c1ccc(N2CCN(c3ccccc3C)CC2)c(NC(=O)c2coc(C3CC3)n2)c1`
0.1 to 1 µM

Field entry: `Cc1ccccc1N1CCN(c2ccc(C(=O)NCc3cccc(S(N)(=O)=O)c3)cc2NC(=O)c2ccco2)CC1`
< 0.1 µM

Field entry: Cc1ccccc1N1CCN(c2ccc(C(=O)NC(C)c3ccccc3)cc2NC(=O)c2coc(C3CC3)n2)CC1 (stereo not shown)
0.1 to 1 µM

Field entry: `Cn1ccnc1N1CCN(c2ccc(C(=O)NCCCN3CCCC3=O)cc2NC(=O)c2coc(C3CC3)n2)CC1`
1 to 10 µM

Field entry: `Cc1ccccc1N1CCN(c2ccc(C(=O)NCCCN3C(=O)CN(C)C3=O)cc2NC(=O)c2coc(C3CC3)n2)CC1`
0.1 to 1 µM

Field entry: Cc1ccccc1N1CCN(c2ccc(C(=O)NCCCN3C(=O)CCC3C)cc2NC(=O)c2coc(C3CC3)n2)CC1 (stereo not shown)
0.1 to 1 µM

Field entry: Cc1ccccc1N1CCN(c2ccc(C(=O)NCCNC3CCS(=O)(=O)C3)cc2NC(=O)c2ccco2)CC1 (stereo not shown)
0.1 to 1 µM

Field entry: `Cc1ccccc1N1CCN(c2ccc(C(=O)NCCc3cccc(CN(C)C)c3)cc2NC(=O)c2coc(C3CC3)n2)CC1`
0.1 to 1 µM

Field entry: `Cc1ccccc1N1CCN(c2ccc(C(=O)NCCCN3CCC[C@H]3C(N)=O)cc2NC(=O)c2ccco2)CC1`
0.1 to 1 µM

Field entry: `CCOc1cc(CCCNC(=O)c2ccc(N3CCN(c4ccccc4C)CC3)c(NC(=O)c3ccco3)c2)ccc1OC`
0.1 to 1 µM

Field entry: `Cc1ccccc1N1CCN(c2ccc(C(=O)NCCc3cccc(CN(C)C)c3)cc2NC(=O)c2ccco2)CC1`
0.1 to 1 µM

Field entry: `Cc1ccc(C(=O)Nc2cc(C(=O)NCCc3cn(C)cn3)ccc2N2CCN(c3ncccc3C)CC2)o1`
1 to 10 µM
